- TARGET_ENTITY: N-His-Tb-BIR3(241-356, XIAP) (Homo sapiens, UniProt P98170)
- Sequence (P98170 241-356): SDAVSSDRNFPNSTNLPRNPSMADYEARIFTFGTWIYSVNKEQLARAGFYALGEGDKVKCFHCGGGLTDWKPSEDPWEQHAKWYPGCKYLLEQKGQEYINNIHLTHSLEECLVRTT
- ASSAY_EXPLANATION: XIAP-BIR3 SMAC Peptide Fluorescence Polarization Assay (FPA)
- Assay type: binding
MEASURED_METRIC: IC50

A selection of reference data follows.
[[record]]
compound = "CN[C@@H](C)C(=O)N[C@H](C(=O)N1C[C@@H]2C[C@H]1C(=O)N[C@@H](Cc1ccccc1)C(=O)N[C@H](C(=O)NCCN(C)C)Cc1ccc(cc1)OCc1cn(nn1)[C@H]1C[C@@H](C(=O)N[C@@H](Cc3ccccc3)C(=O)N[C@H](C(=O)NCCN(C)C)Cc3ccc(cc3)OCc3cn2nn3)N(C(=O)[C@@H](NC(=O)[C@H](C)NC)C(C)C)C1)C(C)C [Compound 106]"
result = "50 to 100 nM"

[[record]]
compound = "CN[C@@H](C)C(=O)N[C@H](C(=O)N1C[C@@H]2C[C@H]1C(=O)N[C@@H](Cc1cccc(C(F)(F)F)c1)C(=O)N[C@H](C(=O)O)Cc1ccc(cc1)COc1cn(nn1)[C@H]1C[C@@H](C(=O)N[C@@H](Cc3cccc(C(F)(F)F)c3)C(=O)N[C@H](C(=O)O)Cc3ccc(cc3)OCc3cn2nn3)N(C(=O)[C@@H](NC(=O)[C@H](C)NC)C(C)C)C1)C(C)C [Compound 112]"
result = "< 50 nM"


# input for lookup
Input: Recorded IC50 of CN[C@@H](C)C(=O)N[C@H](C(=O)N1C[C@@H]2C[C@H]1C(=O)N[C@@H](Cc1ccc(OC)c(OC)c1)C(=O)N[C@H](C(=O)O)Cc1ccc(cc1)OCc1cn(nn1)[C@H]1C[C@@H](C(=O)N[C@@H](Cc3ccc(OC)c(OC)c3)C(=O)N[C@H](C(=O)O)Cc3ccc(cc3)OCc3cn2nn3)N(C(=O)[C@@H](NC(=O)[C@H](C)NC)C2CCCCC2)C1)C1CCCCC1 [Compound 132] , please.
Output: > 100 nM
